Just for reference, ChEMBL document CHEMBL1201862 is where these values come from.

# System: SK-MEL-2
# test: NCI tumour cell line growth inhibition, 48 h
Calls of active or inactive are those of the source. Cut-off read from the data, not from the text of the source: active = GI50 up to about 1.1 µM and inactive = higher.
Classes used: active, inactive

- molecule: "CN(C)CCNC(=O)c1ccc(NCCCN(C)CCCNc2ccc3c(=O)n(CCN(C)C)c(=O)n4c5ccccc5c(=O)c2c34)c2c(O)c3ccccc3nc12"
  assigned_label: "active"
- molecule: "O=C(NCCCCCN1CCC2(CCCCC2)CC1)C(C1CCCCC1)C1CCCCC1"
  assigned_label: "inactive"
- molecule: "O=S(=O)(C1=CC(S(=O)(=O)c2ccccc2)COC1)c1ccccc1 (stereo not given)"
  assigned_label: "inactive"
- molecule: "COc1cc(C)c(C)c(OC(=O)c2c(C)c(C)c(OC)c(C)c2OC)c1C"
  assigned_label: "inactive"
- molecule: "CC(C)OC(=O)NCCn1cc(-c2ccccc2)nn1"
  assigned_label: "inactive"
- molecule: "O=C1C(O)=C(CN(CCCl)CCCl)C(=O)c2ccccc21"
  assigned_label: "inactive"
- molecule: "Cc1[nH]c(-c2ccccc2)c(O)c1C(=O)OC1CC(C)CCC1C(C)C (stereo not given)"
  assigned_label: "inactive"
- molecule: "COc1c2c(cc3nc4ccccc4nc13)CCC(C(C)(C)O)C2 (stereo not given)"
  assigned_label: "inactive"
- molecule: "NC1CC(n2ccc(=O)[nH]c2=O)OC1C(O)CO (stereo not given)"
  assigned_label: "inactive"
- molecule: "C=CCOCn1cnc2c(=O)[nH]c(N)nc21"
  assigned_label: "inactive"
- molecule: "O=P(Nc1ccc(Cl)cc1)(Oc1ccccc1)N(CCCl)CCCl (stereo not given)"
  assigned_label: "inactive"
- molecule: "O=[N+]([O-])/C(C(Cl)=C(Cl)Cl)=C1\\Nc2ccccc2O1"
  assigned_label: "inactive"
- molecule: "Cc1ccc(O)c(-c2cc(-c3ccccc3)nc(/N=C\\c3ccccc3)n2)c1"
  assigned_label: "inactive"
- molecule: "COC(=O)[C@@](NC(=O)OCc1ccccc1)([C@H](C)O)C(F)(F)F"
  assigned_label: "inactive"
- molecule: "CCOC(=O)/C=C1\\Nc2ccccc2C12CCc1c([nH]c3ccccc13)C2C(=O)OCC (stereo not given)"
  assigned_label: "inactive"
- molecule: "COc1cc(C2=NN(C)C(c3ccc([N+](=O)[O-])o3)C2)cc(OC)c1OC (stereo not given)"
  assigned_label: "inactive"
- molecule: "COCCOCc1nc(C#N)c(N)o1"
  assigned_label: "inactive"
- molecule: "COc1cc(/C=C\\c2ccc(SC)cc2)cc(OC)c1OC"
  assigned_label: "active"
- molecule: "CN(C)C(=S)/N=c1\\ssc(=S)n1Cc1cccs1"
  assigned_label: "inactive"
- molecule: "COC(C[C@H]1CCCC[C@]1(O)/C(=C\\CO[Si](C(C)C)(C(C)C)C(C)C)Sc1ccccc1)OC"
  assigned_label: "inactive"
- molecule: "O=C(O)CSC(NC(=O)C(C(F)(F)F)C(F)(F)F)(C(F)(F)F)C(F)(F)F"
  assigned_label: "inactive"
- molecule: "CN(C)CCn1c(=O)c2ccc(NCCCN(C)CCCNc3ccc4c(=O)n(CCN(C)C)c(=O)n5c6ccc(O)cc6c(=O)c3c45)c3c(=O)c4cc(O)ccc4n(c1=O)c23"
  assigned_label: "active"
- molecule: "C[C@@H](NC(=O)[C@@H]1C[C@]1(C)COC(=O)c1cc([N+](=O)[O-])cc([N+](=O)[O-])c1)c1cccc2ccccc12"
  assigned_label: "inactive"
- molecule: "CC(C)OC(=O)c1ccc(CCc2cc(O)c(Br)cc2O)cc1"
  assigned_label: "inactive"
- molecule: "C[C@]12CCC[C@H](Cl)C1(O)C[C@H](C(=O)O)CC2 (stereo not given in full)"
  assigned_label: "inactive"
- molecule: "CCOc1ccc2nc(NC(=O)C(=O)C(c3cnc4ccccc4n3)[N+](=O)[O-])sc2c1 (stereo not given)"
  assigned_label: "inactive"
- molecule: "COc1ccc(C2(O)c3ccccc3C(=O)N(C)C2(O)c2ccc(OC)cc2)cc1 (stereo not given)"
  assigned_label: "inactive"
- molecule: "Cc1ccc2c(c1C)CC1(Cc3ccc(C)c(C)c3C1=O)C2=O (stereo not given)"
  assigned_label: "inactive"
- molecule: "CCCCCCc1cc(C(=O)Nc2cccc(C(F)(F)F)c2)nc(N)n1"
  assigned_label: "inactive"
- molecule: "O=C(O)CN(CC(=O)O)Cc1cc(C#Cc2ccc(C#Cc3ccccc3)cc2)cc(CN(CC(=O)O)CC(=O)O)n1"
  assigned_label: "inactive"
- molecule: "Cc1cc(N(CCC#N)CCC#N)ccc1/N=N/c1ccccc1[N+](=O)[O-]"
  assigned_label: "inactive"
- molecule: "COc1ccc(-c2cc(-c3ccc(Nc4ccnc5cc(C(F)(F)F)ccc45)cc3)[nH]c(=O)c2C#N)c2ccccc12"
  assigned_label: "inactive"
- molecule: "COc1ccc(C2OC(=O)c3ccc4ccccc4c32)c(C)c1 (stereo not given)"
  assigned_label: "inactive"
- molecule: "NNC(=O)N/N=C1\\CN(c2ccc(Cl)cc2Cl)C(=O)C(=O)C1c1nc2ccccc2o1 (stereo not given)"
  assigned_label: "inactive"
- molecule: "Oc1[nH]c(Nc2cccc(CC(F)(F)F)c2)nc2ncnc1-2"
  assigned_label: "inactive"
- molecule: "CCOC(=O)c1cc(Br)c(-c2onc(C)c2Br)[nH]1"
  assigned_label: "inactive"
- molecule: "CCOC(=O)N[C@@H]1C2CC(=O)C(O2)[C@@H]1OC (stereo not given in full)"
  assigned_label: "inactive"
- molecule: "O=CN1CCN(C(=O)c2cc(Cl)cc(Cl)c2)C1=S"
  assigned_label: "inactive"
- molecule: "O=S(=O)(O)c1cc(/N=N/c2cc(S(=O)(=O)O)c3cccnc3c2O)ccc1/C=C/c1ccc(/N=N/c2cc(S(=O)(=O)O)c3cccnc3c2O)cc1S(=O)(=O)O"
  assigned_label: "inactive"
- molecule: "Cc1ccc(NC(=O)C(=O)C(C#N)c2nc(-c3ccc(-c4ccccc4)cc3)cs2)c(C)c1 (stereo not given)"
  assigned_label: "inactive"
